experimentalSystem: Peroxisome proliferator-activated receptor gamma (Homo sapiens)
Sequence (P37231 whole entry, the tested form may be a part): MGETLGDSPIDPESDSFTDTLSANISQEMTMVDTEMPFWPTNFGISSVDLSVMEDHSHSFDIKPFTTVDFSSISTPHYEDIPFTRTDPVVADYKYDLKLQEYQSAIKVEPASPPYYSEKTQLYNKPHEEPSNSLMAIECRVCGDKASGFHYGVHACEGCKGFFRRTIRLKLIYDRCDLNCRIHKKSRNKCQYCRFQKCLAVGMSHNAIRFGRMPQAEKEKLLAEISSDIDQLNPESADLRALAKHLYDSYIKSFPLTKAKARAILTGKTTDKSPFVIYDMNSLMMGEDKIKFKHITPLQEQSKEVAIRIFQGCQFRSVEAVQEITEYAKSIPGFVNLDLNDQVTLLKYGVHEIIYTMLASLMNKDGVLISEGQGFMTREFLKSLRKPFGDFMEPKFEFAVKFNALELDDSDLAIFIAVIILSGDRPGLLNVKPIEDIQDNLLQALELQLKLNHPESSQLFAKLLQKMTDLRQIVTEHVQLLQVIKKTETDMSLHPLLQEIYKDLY
assayDetails: Agonist activity at human PPARgamma expressed in COS-1 cells co-expressing with Gal4 by transactivation assay
Assay type: functional, cell-based
Exercise: state measured pEC50 for each of the molecules provided.
Notebook: values listed as pEC50 are -log10 of the concentration (mol/L).

Problem: Please look up its pEC50: `COc1ccc2c(-n3c(=O)n(Cc4cc([C@@]5(C)OC(=O)NC5=O)ccc4Cl)c4ccccc43)noc2c1`
Result: 8.04

Problem: Please look up its pEC50: `COc1ccc2c(-n3c(=O)n(Cc4ccc(Cl)c(O[C@H](C)C(=O)O)c4)c4cc(OC(F)(F)F)ccc43)noc2c1`
Result: 7.94

Problem: Please look up its pEC50: `C[C@@H](Oc1cc(Cn2c(=O)n(-c3noc4ccc(Cl)cc34)c3ccc(C(F)(F)F)cc32)ccc1Cl)C(=O)O`
Result: 6.92

Problem: Please look up its pEC50: `COc1ccc2c(-n3c(=O)n(Cc4cc(O[C@H](C)C(=O)O)ccc4Cl)c4ccccc43)noc2c1`
Result: 7.29

Problem: Please look up its pEC50: `C[C@@H](Oc1cc(Cn2c(=O)n(-c3ccc(C(C)(C)C)cc3)c3ccc(C(F)(F)F)cc32)ccc1Cl)C(=O)O`
Result: 6.87

Problem: Please look up its pEC50: `COc1ccc2c(-n3c(=O)n(Cc4cc([C@@]5(C)OC(=O)NC5=O)ccc4Cl)c4cc(C(F)(F)F)ccc43)noc2c1`
Result: 7.77

Problem: Please look up its pEC50: `C[C@@H](Oc1cc(Cn2c(=O)n(Cc3ccc(Cl)cc3)c3ccc(C(F)(F)F)cc32)ccc1Cl)C(=O)O`
Result: 5.52

Problem: Please look up its pEC50: `Cc1cccc2c(-n3c(=O)n(Cc4ccc(Cl)c(O[C@H](C)C(=O)O)c4)c4cc(C(F)(F)F)ccc43)noc12`
Result: 8.39

Problem: Please look up its pEC50: `COc1ccc2c(-n3c(=O)n(Cc4ccc(Cl)c(O[C@H](C)C(=O)O)c4)c4cc(C(F)(F)F)ccc43)noc2c1`
Result: 6.99

Problem: Please look up its pEC50: `Cc1ccc2onc(-n3c(=O)n(Cc4ccc(Cl)c(O[C@H](C)C(=O)O)c4)c4cc(C(F)(F)F)ccc43)c2c1`
Result: 5.52

Problem: Please look up its pEC50: `COc1ccc2c(-n3c(=O)n(Cc4ccc(Cl)c(O[C@H](C)C(=O)O)c4)c4ccccc43)noc2c1`
Result: 7.55

Problem: Please look up its pEC50: `C[C@@H](Oc1cc(Cn2c(=O)n(-c3noc4cc(Cl)ccc34)c3ccc(C(F)(F)F)cc32)ccc1Cl)C(=O)O`
Result: 6.70

Problem: Please look up its pEC50: `Cc1ccc2c(-n3c(=O)n(Cc4ccc(Cl)c(O[C@H](C)C(=O)O)c4)c4cc(C(F)(F)F)ccc43)noc2c1`
Result: 7.11

Problem: Please look up its pEC50: `COc1ccc2c(-n3c(=O)n(Cc4cc(O[C@H](C)C(=O)O)ccc4Cl)c4cc(C(F)(F)F)ccc43)noc2c1`
Result: 6.99

Problem: Please look up its pEC50: `COc1ccc2c(-n3c(=O)n(Cc4ccc(Cl)c(O[C@H](C)C(=O)O)c4)c4ccc(C(F)(F)F)cc43)noc2c1`
Result: 7.08

Problem: Please look up its pEC50: `C[C@]1(c2cccc(Cn3c(=O)n(-c4noc5cc(Cl)ccc45)c4ccccc43)c2)OC(O)=NC1=O`
Result: 6.99
